Each entry below carries its recorded %Inh.
system: LIMK2; conditions: concentration: 1 μM, replicates: in singlicate; n = 1
measurement-kind: %Inh (%)

>  <compound>
CN1c2ccc(-c3ccc(C(N)=O)cc3)cc2-c2[nH]ncc2S1(=O)=O

>  <target-under-test>
LIMK2

>  <val>
0

$$$$
>  <compound>
Cc1ccc(NC(=O)Nc2ccc(Cl)c(C(F)(F)F)c2)cc1-c1ccc(C(=O)Nc2ccncc2)cc1

>  <target-under-test>
LIMK2

>  <val>
14

$$$$
>  <compound>
COc1ccc(-c2coc3ccc(-c4nnc(C)o4)cc23)cc1

>  <target-under-test>
LIMK2

>  <val>
0

$$$$
>  <compound>
O=c1cc(N2CCOCC2)nc2n(Cc3ccccc3F)ccn12

>  <target-under-test>
LIMK2

>  <val>
1

$$$$
>  <compound>
Cc1ccccc1Cn1ccn2c(=O)cc(N3CCOCC3)nc12

>  <target-under-test>
LIMK2

>  <val>
0

$$$$
>  <compound>
Nc1ncnc2occ(-c3ccc4c(c3)CCN4C(=O)Cc3cc(F)ccc3F)c12

>  <target-under-test>
LIMK2

>  <val>
22

$$$$
>  <compound>
COc1ccc(Nc2nccc(N3CCC(NC(=O)C(C)c4ccc(Cl)cc4)CC3)n2)cc1 (stereo not drawn)

>  <target-under-test>
LIMK2

>  <val>
18

$$$$
>  <compound>
CC[C@@H]1CO[C@H](C(=O)Nc2ccccc2)CN1c1cc(-c2ccc3c(N)n[nH]c3c2)nc(NC)n1

>  <target-under-test>
LIMK2

>  <val>
9

$$$$
>  <compound>
COc1ccc(CSc2nnc(-c3ccc4c(c3)CCO4)o2)cc1

>  <target-under-test>
LIMK2

>  <val>
0

$$$$
>  <compound>
Cc1cnc(N)c(/C=C/c2cncc(C(=O)NCCc3ccc(Cl)cc3Cl)c2)c1.Cl

>  <target-under-test>
LIMK2

>  <val>
2

$$$$
>  <compound>
O=C(Nc1n[nH]c2nc(-c3cccs3)c(Br)cc12)C1CC1

>  <target-under-test>
LIMK2

>  <val>
0

$$$$
>  <compound>
CC(=O)c1c(C)c2cnc(Nc3ccc(N4CCNCC4)cn3)nc2n(C2CCCC2)c1=O

>  <target-under-test>
LIMK2

>  <val>
99.5

$$$$
>  <compound>
COc1cccc(NC(=O)Nc2ccc(C)c(-c3ccc(C(=O)Nc4ccncc4)cc3)c2)c1

>  <target-under-test>
LIMK2

>  <val>
8

$$$$
>  <compound>
Fc1ccc(-c2nc[nH]c2-c2ccncc2)cc1

>  <target-under-test>
LIMK2

>  <val>
0

$$$$
>  <compound>
CCn1c(-c2ccccc2)nc2cnccc21

>  <target-under-test>
LIMK2

>  <val>
0

$$$$
>  <compound>
Cc1ccc(NC(=O)Nc2ccc(Cl)cc2)cc1-c1ccc(C(=O)Nc2ccncc2)cc1

>  <target-under-test>
LIMK2

>  <val>
67

$$$$
>  <compound>
CNc1nc(-c2ccc3c(N)n[nH]c3c2)cc(N2C[C@@H](C(=O)NC3CCCCC3)OC[C@H]2C)n1

>  <target-under-test>
LIMK2

>  <val>
24

$$$$
>  <compound>
CCCCc1nn2ncccc2c1-c1ccnc(NC2CC2)n1

>  <target-under-test>
LIMK2

>  <val>
34

$$$$
>  <compound>
COC(=O)c1cccc(NC(=O)NC2CCN(c3ccnc(Nc4ccc(OC)cc4)n3)C2)c1 (stereo not drawn)

>  <target-under-test>
LIMK2

>  <val>
3

$$$$
>  <compound>
Cl.Cl.Cl.N#Cc1ccc(CCNc2nccc(-c3cccc(CN4CCNCC4)c3)n2)cc1

>  <target-under-test>
LIMK2

>  <val>
38

$$$$
>  <compound>
CNCc1ccc2nc(NC(=O)c3ccc(C(C)(C)C)cc3)cn2c1

>  <target-under-test>
LIMK2

>  <val>
0

$$$$
>  <compound>
CNc1nc(-c2ccc3c(N)n[nH]c3c2)cc(N2C[C@@H](C(=O)Nc3ccccc3)CC[C@H]2C)n1

>  <target-under-test>
LIMK2

>  <val>
13

$$$$
>  <compound>
Cn1cncc1C(=O)NC1CCN(c2ccnc(Nc3ccc(F)cc3)n2)C1 (stereo not drawn)

>  <target-under-test>
LIMK2

>  <val>
2

$$$$
>  <compound>
Cc1cccc2c(-c3ccncn3)c(-c3ccc(F)cc3)nn12

>  <target-under-test>
LIMK2

>  <val>
0

$$$$
>  <compound>
O=C(Nc1n[nH]c2nc(-c3ccco3)c(Br)cc12)C1CCN(Cc2ccccc2)C1.O=C(O)[C@H](O)[C@@H](O)C(=O)O (stereo not drawn)

>  <target-under-test>
LIMK2

>  <val>
0

$$$$
>  <compound>
COc1cccc(CNC(=O)NC2CCN(c3ccnc(Nc4ccc(F)cc4)n3)C2)c1 (stereo not drawn)

>  <target-under-test>
LIMK2

>  <val>
0

$$$$
>  <compound>
CS(=O)(=O)CCNCc1nc(-c2ccc3ncnc(Nc4ccc5c(cnn5Cc5ccccc5)c4)c3c2)cs1.Cl.Cl

>  <target-under-test>
LIMK2

>  <val>
0

$$$$
>  <compound>
Cn1cnc2c(N)ncnc21

>  <target-under-test>
LIMK2

>  <val>
0

$$$$
>  <compound>
Fc1ccc(-c2nc3n(c2-c2ccncc2)CCS3)cc1

>  <target-under-test>
LIMK2

>  <val>
0

$$$$
>  <compound>
CCn1c(-c2c(N)noc2C)nc2cnccc21

>  <target-under-test>
LIMK2;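 further: KINOMEscan kinase panel screen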

>  <val>
100

$$$$
